Biological target: T1, DegS Y162A (E. coli, UniProt P0AEE3 27-355, Y162A)
T1 sequence (looked up): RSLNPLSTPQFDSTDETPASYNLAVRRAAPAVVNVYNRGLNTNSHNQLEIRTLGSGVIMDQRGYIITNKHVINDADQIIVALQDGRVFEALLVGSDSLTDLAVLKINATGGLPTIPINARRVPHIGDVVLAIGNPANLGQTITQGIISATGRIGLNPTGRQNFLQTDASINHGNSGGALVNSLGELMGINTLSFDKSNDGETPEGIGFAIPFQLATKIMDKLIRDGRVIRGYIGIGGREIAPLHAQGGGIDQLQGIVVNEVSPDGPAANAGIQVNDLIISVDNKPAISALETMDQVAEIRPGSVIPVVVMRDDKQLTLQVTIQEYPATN
Assay: fluorescence polarisation
Where no end group is shown, it is not given here. fluorescein = fluorescein, a fluorescent label on the peptide N-terminus
readout: pKd
Keep in mind that pKd stands for -log10 of concentration in molar terms.

Need pKd, item fluorescein-DNRDGNVYYF [fluorescent OMP peptide fluorescein-DNRDGNVYYF]
5.72
